- system.under.test: S-adenosylmethionine synthetase (MAT 1 and MAT 2) (Rattus norvegicus, UniProt P13444+P18298)
- measurement.notes: Inhibition constant was evaluated on novikoff hepatoma (MAT-T) form of rat methionine adenosyltransferase, when ATP was the variable substrate (60 uM)
- Type: protein assay
- measurement.context: in the assay text read “120 uM” for “60 uM”
quantity: Ki (µM)

See these solved cases before continuing.
molecule	Ki (µM)
Nc1ncnc2c1ncn2[C@@H]1O[C@H](C(CP(=O)(O)OP(=O)(O)OP(=O)(O)O)SCCC(N)C(=O)O)[C@@H](O)[C@H]1O (single isomer, unassigned; epimer 2)	148
Nc1ncnc2c1ncn2[C@@H]1O[C@H](C(CP(=O)(O)OP(=O)(O)OP(=O)(O)O)SCCC(N)C(=O)O)[C@@H](O)[C@H]1O (single isomer, unassigned; epimer 1)	32

a. Nc1ncnc2c1ncn2[C@@H]1O[C@H](C(CP(=O)(O)OP(=O)(O)NP(=O)(O)O)SCCC(N)C(=O)O)[C@@H](O)[C@H]1O (some centres undefined)
b. Nc1ncnc2c1ncn2[C@@H]1O[C@H](C(CP(=O)(O)OP(=O)(O)OP(=O)(O)O)[S+]([O-])CCC(N)C(=O)O)[C@@H](O)[C@H]1O (some centres undefined)
Select one. Lower Ki: a or b In your reply, give the label of the chosen option. a

====

- measurement.notes: Michaelis constant (KM) was evaluated
- Type: ADME
quantity: Km (µM)
Dear colleague, please return just the value in µM, with no unit written.

Record request: Km value, item Nc1ncnc2c1ncn2[C@@H]1O[C@H](COP(=O)(O)OP(=O)(O)OP(=O)(O)O)[C@@H](O)[C@H]1O 140
